# credit: ChEMBL document CHEMBL3638921

systemUnderTest: Sodium channel protein type 9 subunit alpha (Homo sapiens, UniProt Q15858)
Sequence (Q15858 whole entry): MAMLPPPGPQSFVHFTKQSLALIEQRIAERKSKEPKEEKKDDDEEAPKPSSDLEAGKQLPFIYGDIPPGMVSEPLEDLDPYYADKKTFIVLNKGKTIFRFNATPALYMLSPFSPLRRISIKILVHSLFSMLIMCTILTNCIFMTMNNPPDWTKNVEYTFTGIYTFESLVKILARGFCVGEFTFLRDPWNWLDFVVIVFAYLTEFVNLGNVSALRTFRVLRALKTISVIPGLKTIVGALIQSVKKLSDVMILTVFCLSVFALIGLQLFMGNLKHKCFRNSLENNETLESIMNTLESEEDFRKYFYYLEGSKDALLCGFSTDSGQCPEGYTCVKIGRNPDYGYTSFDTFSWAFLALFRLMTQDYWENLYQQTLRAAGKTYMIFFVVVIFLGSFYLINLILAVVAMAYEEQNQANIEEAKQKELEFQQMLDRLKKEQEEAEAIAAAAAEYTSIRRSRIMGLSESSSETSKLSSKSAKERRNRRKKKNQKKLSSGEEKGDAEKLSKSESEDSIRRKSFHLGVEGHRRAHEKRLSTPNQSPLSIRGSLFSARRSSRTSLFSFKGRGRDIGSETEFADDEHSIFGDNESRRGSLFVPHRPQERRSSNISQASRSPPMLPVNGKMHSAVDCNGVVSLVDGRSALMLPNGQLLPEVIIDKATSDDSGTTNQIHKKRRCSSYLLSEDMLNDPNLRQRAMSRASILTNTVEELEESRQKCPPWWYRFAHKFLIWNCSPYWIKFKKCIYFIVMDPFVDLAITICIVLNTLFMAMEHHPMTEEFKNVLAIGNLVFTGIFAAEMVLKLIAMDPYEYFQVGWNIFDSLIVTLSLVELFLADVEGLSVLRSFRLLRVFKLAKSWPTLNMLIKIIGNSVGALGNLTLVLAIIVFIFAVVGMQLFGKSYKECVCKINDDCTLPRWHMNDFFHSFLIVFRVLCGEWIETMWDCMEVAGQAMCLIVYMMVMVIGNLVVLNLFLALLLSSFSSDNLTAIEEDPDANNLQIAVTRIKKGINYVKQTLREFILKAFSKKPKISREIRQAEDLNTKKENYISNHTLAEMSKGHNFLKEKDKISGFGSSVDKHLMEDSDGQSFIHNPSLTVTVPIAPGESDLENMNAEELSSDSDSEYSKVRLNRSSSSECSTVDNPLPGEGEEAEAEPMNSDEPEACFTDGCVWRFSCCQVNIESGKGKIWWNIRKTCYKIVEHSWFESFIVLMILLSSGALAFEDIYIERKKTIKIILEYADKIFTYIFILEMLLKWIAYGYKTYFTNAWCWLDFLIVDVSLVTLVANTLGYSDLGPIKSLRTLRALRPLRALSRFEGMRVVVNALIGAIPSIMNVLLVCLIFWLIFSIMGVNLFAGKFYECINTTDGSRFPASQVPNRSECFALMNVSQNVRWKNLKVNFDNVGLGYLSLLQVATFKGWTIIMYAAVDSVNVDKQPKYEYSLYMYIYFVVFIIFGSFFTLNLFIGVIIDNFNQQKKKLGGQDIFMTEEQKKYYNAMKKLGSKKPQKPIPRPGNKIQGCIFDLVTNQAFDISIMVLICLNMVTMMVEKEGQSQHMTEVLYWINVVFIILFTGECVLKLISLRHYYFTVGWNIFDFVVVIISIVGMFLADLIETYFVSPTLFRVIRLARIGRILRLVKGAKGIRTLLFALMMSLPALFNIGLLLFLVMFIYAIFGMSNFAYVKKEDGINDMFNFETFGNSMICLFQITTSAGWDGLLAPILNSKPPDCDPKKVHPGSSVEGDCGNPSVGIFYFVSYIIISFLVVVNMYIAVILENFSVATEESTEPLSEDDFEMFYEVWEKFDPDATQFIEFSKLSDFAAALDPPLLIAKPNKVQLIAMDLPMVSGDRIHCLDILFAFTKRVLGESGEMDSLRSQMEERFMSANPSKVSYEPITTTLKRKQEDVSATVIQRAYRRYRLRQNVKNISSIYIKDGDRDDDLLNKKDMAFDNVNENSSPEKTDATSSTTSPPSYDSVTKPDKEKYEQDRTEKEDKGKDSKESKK
method: In Vitro Assay: 293 Cells stably transfected with either Nav 1.7 or Nav 1.5 were recorded in population patch-clamp mode with the IonWorks Quattro automated electrophysiology system in accordance with the manufacturer's specifications (Molecular Devices, LLC, Sunnyvale, Calif.). Sodium channel currents were measured in response to a train of depolarizations that induced successively greater inactivation.Cells were held at -110 mV for three seconds (Nav 1.7) or half a second (Nav 1.5) from a holding voltage of -15 mV, then put through a series of 26 pulses of 150 msec duration to -20 mV at a frequency of 5 Hz. Cells were then left unclamped for a period of 3 to 8 minutes while a single concentration of test compound was added. Cells were then reclamped and put through the same voltage protocol. Current at the end of the 26th pulse to -20 mV was subtracted from the peak current evoked by the 26th pulse to -20 mV to correct for leak current.
Assign pIC50 to each entry below.
Keep it numeric: pIC50 is minus log10 of the concentration in mol/L.

Challenge: Give reported pIC50 value for "O=S(=O)(Nc1ncns1)c1ccc2c(-c3ccc(C(F)(F)F)cc3F)cccc2c1"
Response given: 6.68

Challenge: Give reported pIC50 value for "CN1CCC(c2cc(C(F)(F)F)ccc2-c2cccc3cc(S(=O)(=O)Nc4ncc(F)s4)ccc23)CC1"
Response given: 6.82

Challenge: Give reported pIC50 value for "O=S(=O)(Nc1ncns1)c1ccc2c(-c3ccc(Cl)cc3F)cccc2c1"
Response given: 6.68

Challenge: Give reported pIC50 value for "O=S(=O)(Nc1ncns1)c1ccc2c(-c3ccc(Cl)cc3)cccc2c1"
Response given: 6.72

Challenge: Give reported pIC50 value for "Nc1cc(Cl)ccc1-c1cccc2cc(S(=O)(=O)Nc3ncns3)ccc12"
Response given: 6.96

Challenge: Give reported pIC50 value for "COc1cc(C#N)ccc1-c1nncc2cc(S(=O)(=O)Nc3nccs3)ccc12"
Response given: 6.59

Challenge: Give reported pIC50 value for "O=S(=O)(Nc1ncns1)c1ccc2c(-c3ccc(Cl)cc3Cl)nccc2c1"
Response given: 7.15

Challenge: Give reported pIC50 value for "O=S(=O)(Nc1ncns1)c1ccc2c(-c3ccc(C(F)(F)F)cc3)cccc2c1"
Response given: 6.37

Challenge: Give reported pIC50 value for "COc1cc(Cl)ncc1-c1nccc2cc(S(=O)(=O)Nc3ccncn3)ccc12"
Response given: 6.34

Challenge: Give reported pIC50 value for O=S(=O)(Nc1ncns1)c1ccc2c(N3CCC3c3ccccc3)cccc2c1 (stereo not drawn)
Response given: 5.41

Challenge: Give reported pIC50 value for "Cc1cc(Cl)ccc1-c1cccc2cc(S(=O)(=O)Nc3ncns3)ccc12"
Response given: 6.72

Challenge: Give reported pIC50 value for "O=S(=O)(Nc1ccncn1)c1ccc2c(-c3cc(C(F)(F)F)ccc3F)nccc2c1"
Response given: 6.24
